# Test system: α1-ARs
# ASSAY REMARKS: Radioligand binding, displacement of [3H]-Prazosin from α1-ARs on rat cerebral cortex
# ASSAY CONDITIONS: Ki α2 / Ki α1
Answer each item with its documented Sα2/α1 (ratio of affinity for α2- and α1-ARs).

Problem: Value wanted: Sα2/α1 (ratio of affinity for α2- and α1-ARs) (α1-ARs) of entry O=S(=O)(N[C@H]1CCN(CCOc2ccccc2OCC(F)(F)F)C1)c1cc(Cl)ccc1F [Compound 16]
Solution: 13

Problem: Form field - read-out: Sα2/α1 (ratio of affinity for α2- and α1-ARs); system: α1-ARs; submitted item: O=S(=O)(NCC1CCN(CCOc2ccccc2OCC(F)(F)F)CC1)c1ccc(F)cc1 [Compound 8]
Solution: 46

Problem: Lab request: please report Sα2/α1 (ratio of affinity for α2- and α1-ARs) under test system α1-ARs for O=S(=O)(N[C@@H]1CCN(CCOc2ccccc2OCC(F)(F)F)C1)c1cc(Cl)ccc1F [Compound 15]
Solution: 7
